- System: Candida albicans
- Test details: Antimicrobial activity against Candida albicans MTCC 183 assessed as growth inhibition after 48 hr by agar streak dilution method
- Format: functional
- Reported conditions: MTCC 183, 48 h
Measured property: log10(MIC) (log10 of the value in mg/L)
A value of 2 here means MIC of 100 in mg/L, since values are log10.

## Task Give me measured log10(MIC), please, for this molecule: `O=C(/C=C/c1ccccc1Br)c1ccc(Nc2cc(=O)oc3ccccc23)cc1`
## Result 1.70

## Task Quickly give me recorded log10(MIC) for `N#Cc1c(-c2ccc(Cl)cc2)cc(-c2ccc(Nc3cc(=O)oc4ccccc34)cc2)nc1N`
## Result 0.80

## Task Look up and report measured log10(MIC) for this entry: `N#Cc1c(-c2ccccc2)cc(-c2ccc(Nc3cc(=O)oc4ccccc34)cc2)nc1N`
## Result 1.40

## Task Specify log10(MIC) for CC(=O)N1N=C(c2ccc(Nc3cc(=O)oc4ccccc34)cc2)CC1c1ccccc1 (configuration not stated) and stop.
## Result 2.00

## Task Quote log10(MIC) reported for `Nc1nc(-c2ccc(F)cc2)cc(-c2ccc(Nc3cc(=O)oc4ccccc34)cc2)n1` please.
## Result 1.40

## Task Give the reported value of log10(MIC) for this record: CC(=O)N1N=C(c2ccc(Nc3cc(=O)oc4ccccc34)cc2)CC1c1ccccc1Br (configuration not stated)
## Result 1.40

## Task Fill in log10(MIC) for record CC(=O)N1N=C(c2ccc(Nc3cc(=O)oc4ccccc34)cc2)CC1c1ccc(O)cc1O (configuration not stated)
## Result 1.70

## Task Give the reported value of log10(MIC) for this record: `O=C(/C=C/c1ccc([N+](=O)[O-])cc1)c1ccc(Nc2cc(=O)oc3ccccc23)cc1`
## Result 2.00

## Task For the molecule `Cc1ccc(-c2cc(-c3ccc(Nc4cc(=O)oc5ccccc45)cc3)nc(N)n2)cc1` , give its measured log10(MIC) value.
## Result 1.70

## Task Given `O=C(/C=C/c1ccc(F)cc1)c1ccc(Nc2cc(=O)oc3ccccc23)cc1` , respond with its log10(MIC).
## Result 2.00

----------
We begin with a simple list: items and their reported diameter of the inhibition zone (DIZ).
- Tested on: Candida albicans
- Test details: Antimicrobial activity against Candida albicans MTCC 183 assessed as diameter of growth inhibition zone after 48 hr
- Type: functional
# do not omit the unit; it follows the number

Known diameter of the inhibition zone (DIZ) results, listed for orientation:
Compound	Test system	Result
COc1ccc(/C=C/C(=O)c2ccc(Nc3cc(=O)oc4ccccc34)cc2)cc1	Candida albicans	16 mm
O=C(/C=C/c1ccccc1Br)c1ccc(Nc2cc(=O)oc3ccccc23)cc1	Candida albicans	18 mm
CC(=O)N1CCN(c2ccc(OCC3COC(Cn4ccnc4)(c4ccc(Cl)cc4Cl)O3)cc2)CC1 (stereo not drawn) [KETOCONAZOLE]	Candida albicans	33 mm
Cc1ccc(-c2cc(-c3ccc(Nc4cc(=O)oc5ccccc45)cc3)nc(N)n2)cc1	Candida albicans	16 mm
Nc1nc(-c2ccc(Nc3cc(=O)oc4ccccc34)cc2)cc(-c2ccc(O)cc2O)n1	Candida albicans	21 mm

## Task Provide only the value of recorded diameter of the inhibition zone (DIZ) for `COc1ccc(-c2cc(-c3ccc(Nc4cc(=O)oc5ccccc45)cc3)nc(N)n2)cc1OC`
## Result 26 mm

## Task In one line, give reported diameter of the inhibition zone (DIZ) of the entry `Nc1nc(-c2ccc(Nc3cc(=O)oc4ccccc34)cc2)cc(-c2ccccc2O)n1` .
## Result 18 mm

## Task Given `O=C(/C=C/c1ccc(Cl)cc1)c1ccc(Nc2cc(=O)oc3ccccc23)cc1` , respond with its diameter of the inhibition zone (DIZ).
## Result 15 mm

----------
diameter of the inhibition zone (DIZ) by entry:
- Tested on: Proteus vulgaris
- Test details: Antimicrobial activity against Proteus vulgaris MTCC 1771 assessed as diameter of growth inhibition zone after 24 hr
- Assay type: functional
All answers are understood in mm, so give the number only.

Examples with answers:
Molecule	Test system	diameter of the inhibition zone (DIZ) [mm]
N#Cc1c(-c2ccc(F)cc2)cc(-c2ccc(Nc3cc(=O)oc4ccccc34)cc2)nc1N	Proteus vulgaris	29
CC(=O)N1N=C(c2ccc(Nc3cc(=O)oc4ccccc34)cc2)CC1c1ccccc1Br (stereo unspecified)	Proteus vulgaris	15
Cc1ccc(-c2cc(-c3ccc(Nc4cc(=O)oc5ccccc45)cc3)nc(N)c2C#N)cc1	Proteus vulgaris	24

## Task Tell me diameter of the inhibition zone (DIZ) reported for CC(=O)N1N=C(c2ccc(Nc3cc(=O)oc4ccccc34)cc2)CC1c1ccc(C)cc1 (stereo unspecified)
## Result 20

## Task Provide one value: measured diameter of the inhibition zone (DIZ) of `N#Cc1c(-c2ccccc2Br)cc(-c2ccc(Nc3cc(=O)oc4ccccc34)cc2)nc1N`
## Result 20

----------
- Tested on: Aspergillus clavatus
- Test details: Antimicrobial activity against Aspergillus clavatus MTCC 1323 assessed as growth inhibition after 48 hr by agar streak dilution method
- Format: functional
- Reported conditions: MTCC 1323, 48 h
Criterion: MIC strictly under 50 µg/mL. Met: criterion met. Not met: criterion not met.

Illustrative cases are given below, each with its answer.
Compound	Group label
N#Cc1c(-c2ccc(O)cc2O)cc(-c2ccc(Nc3cc(=O)oc4ccccc34)cc2)nc1N	criterion met
CC(=O)N1N=C(c2ccc(Nc3cc(=O)oc4ccccc34)cc2)CC1c1ccc(C)cc1 (stereo unspecified)	criterion not met
N#Cc1c(-c2ccccc2)cc(-c2ccc(Nc3cc(=O)oc4ccccc34)cc2)nc1N	criterion met
N#Cc1c(-c2ccccc2Br)cc(-c2ccc(Nc3cc(=O)oc4ccccc34)cc2)nc1N	criterion met

## Task For COc1ccc(C2CC(c3ccc(Nc4cc(=O)oc5ccccc45)cc3)=NN2C(C)=O)cc1 (stereo unspecified) , is the recorded MIC below the cut-off of 50 µg/mL?
## Result criterion met

## Task Dear reviewer, please state whether `Cc1ccc(/C=C/C(=O)c2ccc(Nc3cc(=O)oc4ccccc34)cc2)cc1` has MIC strictly beneath 50 µg/mL.
## Result criterion not met

## Task For `N#Cc1c(-c2ccc(Cl)cc2)cc(-c2ccc(Nc3cc(=O)oc4ccccc34)cc2)nc1N` , is the recorded MIC below the cut-off of 50 µg/mL?
## Result criterion met

----------
Listed here: items and their measured MIC.
- System: Candida albicans
- Test details: Antimicrobial activity against Candida albicans MTCC 183 assessed as growth inhibition after 48 hr by agar streak dilution method
- Assay type: functional
- Reported conditions: MTCC 183, 48 h
Could you give me the number in µg/mL? Just the number is fine.

Consider the worked cases shown below.
Compound	Test system	Unit text	MIC
COc1ccc(/C=C/C(=O)c2ccc(Nc3cc(=O)oc4ccccc34)cc2)cc1	Candida albicans	µg/mL	100
N#Cc1c(-c2ccccc2O)cc(-c2ccc(Nc3cc(=O)oc4ccccc34)cc2)nc1N	Candida albicans	µg/mL	25

Next item in the queue.
## Task Give MIC for this entry on Candida albicans: CC(=O)N1N=C(c2ccc(Nc3cc(=O)oc4ccccc34)cc2)CC1c1ccc(Cl)cc1 (configuration not stated)
## Result 50

----------
- System: Aspergillus clavatus
- Test details: Antimicrobial activity against Aspergillus clavatus MTCC 1323 assessed as growth inhibition after 48 hr by agar streak dilution method
- Type: functional
- Reported conditions: MTCC 1323, 48 h
Measured property: MIC (µg/mL)
Answer with a number only, understood to be in µg/mL.

Compound	MIC, µg/mL
CC(=O)N1N=C(c2ccc(Nc3cc(=O)oc4ccccc34)cc2)CC1c1ccccc1O (centres undefined)	50

## Task Identify the reported MIC for the following entry. CC(=O)N1N=C(c2ccc(Nc3cc(=O)oc4ccccc34)cc2)CC1c1ccccc1Br (centres undefined)
## Result 100

## Task Check the records and state MIC for `Nc1nc(-c2ccc(Nc3cc(=O)oc4ccccc34)cc2)cc(-c2ccc([N+](=O)[O-])cc2)n1`
## Result 25

## Task Report measured MIC; entry is `COc1ccc(/C=C/C(=O)c2ccc(Nc3cc(=O)oc4ccccc34)cc2)cc1`
## Result 50

## Task Complete the entry with MIC for `O=C(/C=C/c1ccc(Cl)cc1)c1ccc(Nc2cc(=O)oc3ccccc23)cc1`
## Result 100

## Task Name the recorded MIC of the item CC(=O)N1N=C(c2ccc(Nc3cc(=O)oc4ccccc34)cc2)CC1c1ccccc1 (centres undefined) in your answer.
## Result 100

----------
- System: Candida albicans
- Test details: Antimicrobial activity against Candida albicans MTCC 183 assessed as growth inhibition after 48 hr by agar streak dilution method
- Assay type: functional
- Reported conditions: MTCC 183, 48 h
Measured property: MIC (µg/mL)
Your answer should be a plain number; it is taken to be in µg/mL.

## Task State its MIC: COc1ccc(C2CC(c3ccc(Nc4cc(=O)oc5ccccc45)cc3)=NN2C(C)=O)cc1OC (centres undefined)
## Result 25

## Task Complete the entry with MIC for `N#Cc1c(-c2ccc(Cl)cc2Cl)cc(-c2ccc(Nc3cc(=O)oc4ccccc34)cc2)nc1N`
## Result 12.5

## Task Look up and state reported MIC for CC(=O)N1N=C(c2ccc(Nc3cc(=O)oc4ccccc34)cc2)CC1c1ccc(C)cc1 (centres undefined)
## Result 100

## Task Supply measured MIC of `N#Cc1c(-c2ccccc2Br)cc(-c2ccc(Nc3cc(=O)oc4ccccc34)cc2)nc1N` in your reply.
## Result 25

## Task Specify MIC for CC(=O)N1N=C(c2ccc(Nc3cc(=O)oc4ccccc34)cc2)CC1c1ccc(Cl)cc1Cl (centres undefined) and stop.
## Result 100

## Task Item CC(=O)N1N=C(c2ccc(Nc3cc(=O)oc4ccccc34)cc2)CC1c1ccc(F)cc1 (centres undefined) : provide MIC
## Result 50

## Task Answer with the recorded MIC for the molecule listed here: CC(=O)N1N=C(c2ccc(Nc3cc(=O)oc4ccccc34)cc2)CC1c1ccccc1O (centres undefined)
## Result 100

## Task // Input: `Nc1nc(-c2ccc(Nc3cc(=O)oc4ccccc34)cc2)cc(-c2ccc(O)cc2O)n1` . Output its MIC only.
## Result 25

## Task Specify measured MIC for `N#Cc1c(-c2ccc([N+](=O)[O-])cc2)cc(-c2ccc(Nc3cc(=O)oc4ccccc34)cc2)nc1N` .
## Result 12.5

## Task # return recorded MIC for input `COc1ccc(-c2cc(-c3ccc(Nc4cc(=O)oc5ccccc45)cc3)nc(N)n2)cc1OC`
## Result 6.25

## Task Indicate the recorded MIC value for this molecule: `COc1ccc(-c2cc(-c3ccc(Nc4cc(=O)oc5ccccc45)cc3)nc(N)c2C#N)cc1OC`
## Result 6.25

## Task Give recorded MIC. `COc1ccc(-c2cc(-c3ccc(Nc4cc(=O)oc5ccccc45)cc3)nc(N)c2C#N)cc1`
## Result 12.5

## Task Give the reported value of MIC for this record: `N#Cc1c(-c2ccc(F)cc2)cc(-c2ccc(Nc3cc(=O)oc4ccccc34)cc2)nc1N`
## Result 12.5

## Task Entry `Cc1ccc(/C=C/C(=O)c2ccc(Nc3cc(=O)oc4ccccc34)cc2)cc1` needs its MIC filled in; supply it.
## Result 100
